assay_info: MM1S myeloma cell viability, profiling panel, resazurin fluorescence, basal, 24 h, PK04 Diversity Set (AID 1174);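 further: MM1S multiple myeloma cell line; test concentration not given here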
condition_notes: higher = more signal, called active from +8 up or from −8 down
Classification field: 1.0 = z-score at or over -0.7; 0.0 = z-score under -0.7.

Exercise: Does `CCN1C(=O)[C@H]2[C@H]3[C@H](O)[C@H](O)CC(=NO[C@@H]4O[C@H](CO)[C@@H](O)[C@H](O)[C@H]4O)[C@@H]3CC[C@H]2C1=O` have a reported z-score of at least -0.7?
Key: 1.0

Exercise: Does `CC(C)[C@H](NC(=O)OC(C)(C)C)[C@@H](O)CC(=O)OC(C)(C)C` have a reported z-score of at least -0.7?
Key: 1.0

Exercise: Does `CCCNC(=O)OC[C@H]1O[C@H](CCON=C2[C@H]3CCn4c(=O)n(-c5ccccc5)c(=O)n4[C@H]3[C@H](O)[C@@H]3O[C@H]23)C=C[C@@H]1Oc1ccc(OC)cc1` have a reported z-score of at least -0.7?
Key: 0.0

Exercise: Does `[N-]=[N+]=NCc1ccccc1[C@@H]1OC(c2ccc(OCCCO)cc2)=N[C@]1(Cc1ccccc1)C(=O)N1CCOCC1` have a reported z-score of at least -0.7?
Key: 0.0

Exercise: Does `CO[C@@H]1COC(=O)CCC[C@@H](C)[C@H](OC)COC(=O)[C@H](Cc2ccccc2)NC(=O)CC=C[C@H]1C` have a reported z-score of at least -0.7?
Key: 1.0

Exercise: Does `COc1ccc([Si](C)(C)[C@H]2[C@H](CC(=O)N3CCC[C@H]3CO)O[C@@]3(C(=O)N(Cc4cccc(N5C(=O)COc6ccccc65)c4)c4ccccc43)[C@@H]2C)cc1` have a reported z-score of at least -0.7?
Key: 0.0

Exercise: Does `C#C[C@@H]1Oc2ccccc2S(=O)(=O)N2CCC[C@H]12` have a reported z-score of at least -0.7?
Key: 1.0

Exercise: Does CC(CCN1CCCCc2nc(C)c(C)cc21)=NOC(C)CN1CCCCc2nc(C)c(C)cc21 (stereo not drawn) have a reported z-score of at least -0.7?
Key: 1.0

Exercise: Does `[N-]=[N+]=NCc1ccccc1C[C@]1(C(=O)NCc2ccccc2)N=C(c2ccc(OCCCO)cc2)O[C@H]1c1ccccc1N=[N+]=[N-]` have a reported z-score of at least -0.7?
Key: 0.0

Exercise: Does `Cc1ccc(S(=O)(=O)N[C@@H]2COC(=O)[C@H](C)COC(=O)CC=C[C@H]2C)cc1` have a reported z-score of at least -0.7?
Key: 1.0

Exercise: Does `C[C@H](c1ccccc1)N1C(=O)[C@H]2[C@H]3[C@H](O)[C@H](O)CC(=O)[C@@H]3CC[C@H]2C1=O` have a reported z-score of at least -0.7?
Key: 1.0

Exercise: Does Cn1cccc1C(O)C1C=CC2C(=O)NC(=O)C2N1Nc1ccccn1 (stereo not drawn) have a reported z-score of at least -0.7?
Key: 0.0

Exercise: Does `C=C(COC)/C(=C/C[C@H](OC(=O)c1ccncc1)c1ccc(CO)o1)c1cc(C(=O)OC)ccc1OC` have a reported z-score of at least -0.7?
Key: 1.0

Exercise: Does `O=C1c2ccccc2[C@@]2(Cc3ccccc3N(C3CC3)C2=O)[C@H](c2ccc(CO)cc2)N1Cc1ccccc1C(F)(F)F` have a reported z-score of at least -0.7?
Key: 1.0

Exercise: Does `CCOC(=O)C[C@H]1[C@H](OC(=O)c2ccc(C(=O)c3ccccc3)cc2)[C@@H](NC(=O)c2ccc(-c3ccccc3)cc2)c2cc(OCCCO)ccc2N1C(=O)c1ccc2ccccc2n1` have a reported z-score of at least -0.7?
Key: 1.0

Exercise: Does `COC(=O)[C@@]1(Cc2ccccc2)[C@H]2c3cc(C(=O)N4CCCC4)n(Cc4ccccn4)c3C[C@H]2CN1C(=O)c1ccccc1` have a reported z-score of at least -0.7?
Key: 0.0
